B1: EHEE_rd2_1257 (parent)
chain: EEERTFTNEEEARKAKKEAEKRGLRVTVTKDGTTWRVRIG

Variants of: B1
Test: folding stability dG (cDNA display proteolysis); higher = more stable
Settings: PBS, room temperature
Value type: folding stability dG (kcal/mol)
One number for each entry, in kcal/mol.

Here is how some variants turned out for folding stability dG.
| Residues | Value type | Value measured |
| --- | --- | --- |
| EEERTFTNEEEARFAKKEAEKRGLRVTVTKDGTTWRVRIG | folding stability dG | 1.94 |
| EEERTFTNEEEARKAKKEWEKRGLRVTVTKDGTTWRVRIG | folding stability dG | 2.02 |
| EEERTFTNEEEARKAKKEAEKRGLRVTVTKDGTTWSVRIG | folding stability dG | 1.17 |
| EEERTFTNEEEARKAKKEAEKRGLRVTVTKDGHTWRVRIG | folding stability dG | 2.11 |
| SEERTFTNEEEARKAKKEAEKRGLRVTVTKDGTTWRVRIG | folding stability dG | 2.02 |

For each of the variants below, state folding stability dG.
1. EEERDFTNEEEARKAKKEAEKRGLRVTVTKDGTTWRVRIG
2. EEERTFTNEEEARKAKKEAEKNGLRVTVTKDGTTWRVRIG
3. EEERTFTNEEEARKAKKEAEKRGLRVTVTKDGTTWRVRTG
4. EEERTFTNEEEARKAKKEAEKRGLRVTVTKDGPTWRVRIG
5. EEERTFTNEEEARKAKKEAEKRGLRVTVTKDGTTWRVRPG
6. EEERTFTFEEEARKAKKEAEKRGLRVTVTKDGTTWRVRIG
7. EEERTFTNEEEARKAKKEAEKCGLRVTVTKDGTTWRVRIG

Response:
1: 1.13; 2: 1.72; 3: 1.27; 4: 2.58; 5: 0.239; 6: 1.09; 7: 1.55

For each of the variants below, state folding stability dG.
1. EEERTFTGEEEARKAKKEAEKRGLRVTVTKDGTTWRVRIG
2. EEERTFTNEEEARKAKKEAEKRGLRVTVTKDGTTWRVGIG
3. EEERTFTNEEEARKAKKEAEKRGLWVTVTKDGTTWRVRIG
4. EEERTFTEEEEARKAKKEAEKRGLRVTVTKDGTTWRVRIG
5. EEERTFTNEEEARKAKKEAEKRGLRVGVTKDGTTWRVRIG
6. EEERTFTNEEEARKAKKEAEKRGLAVTVTKDGTTWRVRIG
7. EEERTFTSEEEARKAKKEAEKRGLRVTVTKDGTTWRVRIG
8. EEERTFTNEEEARKAKKWAEKRGLRVTVTKDGTTWRVRIG

Response:
0.865
0.853
1.98
1.35
0.262
1.62
2.31
2.24

For each of the variants below, state folding stability dG.
1. EEERTFTNEEEWRKAKKEAEKRGLRVTVTKDGTTWRVRIG
2. EEERTFTNEEEARKAKKEAEKRGLRVTVTADGTTWRVRIG
3. EEERTFTNEEEARKAKKEAEKRGLRVTVTKDGTTARVRIG
4. EEERTFTNMEEARKAKKEAEKRGLRVTVTKDGTTWRVRIG
5. EYERTFTNEEEARKAKKEAEKRGLRVTVTKDGTTWRVRIG

Response:
[0.906, 1.53, -0.238, 1.55, 2.85]

For each of the variants below, state folding stability dG.
1. EEERTFTNEEEAYKAKKEAEKRGLRVTVTKDGTTWRVRIG
2. EEERTFTNEEEARKAKKEAEKWGLRVTVTKDGTTWRVRIG

Response:
2.92
1.72

For each of the variants below, state folding stability dG.
1. EEQRTFTNEEEARKAKKEAEKRGLRVTVTKDGTTWRVRIG
2. EEERTFTLEEEARKAKKEAEKRGLRVTVTKDGTTWRVRIG
3. EEERHFTNEEEARKAKKEAEKRGLRVTVTKDGTTWRVRIG
4. EEERTFTNEEEARKAKKEAEKRGLRVTVTKDGTTWRIRIG
5. EERRTFTNEEEARKAKKEAEKRGLRVTVTKDGTTWRVRIG
6. EEETTFTNEEEARKAKKEAEKRGLRVTVTKDGTTWRVRIG

Response:
1.44
1.52
1.68
1.7
0.931
1.61

For each of the variants below, state folding stability dG.
1. EEERTFTNEEEARKAKKEAEFRGLRVTVTKDGTTWRVRIG
2. EEERTFTNEEEARKAKKEAEKRGLRVTVTTDGTTWRVRIG
3. EEERTFTNEEEARKWKKEAEKRGLRVTVTKDGTTWRVRIG
4. EEERTFTNEEEARKAKKEAEKRMLRVTVTKDGTTWRVRIG
5. EEERTFTNEEEARKAKKEAEKRGLRVTVTKDGTTWRVRIA
6. EEERTFTNEEEARKAKKEAEKRGLRVTVTKDGTQWRVRIG
7. EEERTFTNEEEARKAKKEAEKRGLRVTVTKDGTYWRVRIG
8. EEERTFTNEEEARKAKKEATKRGLRVTVTKDGTTWRVRIG

Response:
1.89
2.57
3.04
0.537
2.19
1.97
2.4
1.11

Cited source: the MegaScale stability set (Tsuboyama et al. 2023)
